Data origin: patent US20020137929A1

# Tested on: AMBEL (Ragweed, Common)
# METHOD SUMMARY: Postemergence herbicidal evaluation
# Type: in vivo, Ambrosia artemisifolia
# CONDITION: postemergence, rate 0.0630 kg/ha
EXPERIMENTAL READOUT: AMBEL herbicidal rating
# output: bare number, no unit

Please review the following examples before continuing.
COMPOUND | AMBEL herbicidal rating
CN1C(=O)C(CC(N)=O)SC1=Nc1cc(-n2c(=O)cc(C(F)(F)F)n(C)c2=O)c(F)cc1Cl (stereo not drawn) | 9.0
C=CCN1C(=O)C(CC(=O)OC(C)C(=O)OCC)SC1=Nc1cc(-n2c(=O)ccn(C)c2=O)c(F)cc1Cl (stereo not drawn) | 9.0

Prompt line: Give the measured AMBEL herbicidal rating of CCOC(=O)CN1C(=O)C(CC(=O)OCCF)SC1=Nc1cc(-n2c(=O)cc(C(F)(F)F)n(C)c2=O)c(F)cc1Cl (stereo not drawn) .
Response line: 9.0

Prompt line: Given the entry `CCOC(=O)[C@H](C)N1C(=O)CSC1=Nc1cc(-n2c(=O)cc(C(F)(F)F)n(C)c2=O)c(F)cc1Cl` , report its measured AMBEL herbicidal rating.
Response line: 9.0

Prompt line: # get_value(readout='AMBEL herbicidal rating', item= `COC(=O)[C@H](Cc1ccccc1)N1C(=O)CS/C1=N/c1cc(-n2c(=O)cc(C(F)(F)F)n(C)c2=O)c(F)cc1Cl` )
Response line: 6.0

Prompt line: Field request: AMBEL herbicidal rating | item: `C=CCN1C(=O)CSC1=Nc1cc(-n2c(=O)cc(C(F)(F)F)n(C)c2=O)c(F)cc1Cl`
Response line: 7.0
